This listing pairs compounds with measured hERG current change (%, negative = inhibition) at 10uM.
Biological target: human ether-à-go-go-related gene (hERG) potassium channel (human, UniProt Q12809);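 note: peak tail current of the secondary pulse compared with the same well before compound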
Sequence (Q12809 whole entry, looked up): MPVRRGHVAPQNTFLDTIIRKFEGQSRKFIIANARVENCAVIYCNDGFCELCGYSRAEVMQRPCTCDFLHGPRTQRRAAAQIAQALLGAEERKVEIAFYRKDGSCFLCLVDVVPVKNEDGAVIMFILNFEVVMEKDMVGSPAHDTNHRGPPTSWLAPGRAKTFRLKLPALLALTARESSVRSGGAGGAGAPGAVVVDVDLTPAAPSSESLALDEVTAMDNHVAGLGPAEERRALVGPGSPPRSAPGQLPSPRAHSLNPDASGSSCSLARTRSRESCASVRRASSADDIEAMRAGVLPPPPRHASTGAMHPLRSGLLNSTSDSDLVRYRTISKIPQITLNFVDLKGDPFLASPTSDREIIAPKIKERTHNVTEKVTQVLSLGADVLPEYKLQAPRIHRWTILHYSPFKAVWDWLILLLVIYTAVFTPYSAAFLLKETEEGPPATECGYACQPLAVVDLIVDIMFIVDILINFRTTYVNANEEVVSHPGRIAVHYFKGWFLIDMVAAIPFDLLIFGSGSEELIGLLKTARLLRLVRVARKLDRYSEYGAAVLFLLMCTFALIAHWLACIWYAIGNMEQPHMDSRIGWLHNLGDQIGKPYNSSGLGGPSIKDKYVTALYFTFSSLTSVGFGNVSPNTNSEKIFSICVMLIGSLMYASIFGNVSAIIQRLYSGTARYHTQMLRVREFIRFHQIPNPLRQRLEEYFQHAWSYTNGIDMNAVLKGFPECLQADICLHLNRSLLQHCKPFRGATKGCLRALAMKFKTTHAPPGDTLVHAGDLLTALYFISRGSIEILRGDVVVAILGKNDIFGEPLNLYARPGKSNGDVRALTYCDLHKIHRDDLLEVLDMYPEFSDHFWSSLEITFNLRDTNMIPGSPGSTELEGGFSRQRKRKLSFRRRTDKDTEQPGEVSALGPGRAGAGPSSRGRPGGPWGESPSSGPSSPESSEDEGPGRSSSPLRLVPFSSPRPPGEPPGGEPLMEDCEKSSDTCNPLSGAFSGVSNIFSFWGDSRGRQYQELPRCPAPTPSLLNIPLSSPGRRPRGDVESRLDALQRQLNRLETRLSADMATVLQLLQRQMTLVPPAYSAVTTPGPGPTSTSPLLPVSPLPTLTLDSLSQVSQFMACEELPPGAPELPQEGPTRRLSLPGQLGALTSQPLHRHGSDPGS
Test: primary screen, population patch clamp on CHO cells stably expressing hERG; higher = less effect of the substance
Procedure: Briefly, Chinese hamster ovary (CHO) cells stably expressing the hERG channel were dislodged from tissue culture flasks and dispensed into PPC plates. […] During the recording, background leak currents were estimated by a 100 ms step to -80 mV from an initial holding potential of -70 mV and subtracted from the subsequent current measurement. The campaign was conducted in two phases using slight differences in recording protocol. […]
In all, about 310,000 compounds went through this assay and about 14,000 (4.5%) showed an effect of 50% or more. Effects have a minus sign here. For the sample, strong results were picked, then their nearest neighbours and some compounds at random.
State the answer as a number, implicitly in %.

>>> reported("Nc1c(C(=O)NC2CCCCC2)nsc1C(=O)OCC(=O)NC1CCCCC1")
12.5

Recorded hERG current change (%, negative = inhibition) at 10uM for CC(C)C(=O)Nc1ncc(Cc2ccc(Cl)cc2)s1 , please? 6.53

And then O=C(Nc1ccccc1)N1CCCN(c2ccc(C(F)(F)F)cc2[N+](=O)[O-])CC1 , what is it? -39.9

Also O=C(Cn1nc(-c2ccccc2)c2ccccc2c1=O)NN1CCOCC1 ? 5.24

CCCCN(CCCC)CC(O)COc1ccc(Br)cc1 (stereo not drawn) ? -74.4

And Cc1cccc(OCC(=O)Nc2ccccc2N2CCCCC2)c1C ? -21.9

Another compound to check: Cc1nc([N+](=O)[O-])cn1Cc1cccc2ccccc12 10.2

Also C/C(=C\c1ccc(Br)cc1)C(=O)c1c(C)cc(C)[nH]c1=O , if possible. 8

Another: Cc1ccc(NC(=O)Cn2cnc3cc([N+](=O)[O-])ccc3c2=O)cc1 0.77

Try the compound CC(=O)c1ccc(NC(=O)CSc2ccc3nnc(-c4cccnc4)n3n2)cc1 -28.8

Further, for COc1ccc(NC(=O)CSc2ccc3nnc(-c4cccnc4)n3n2)cc1 ? -50.4

Same lookup for c1ccc(-c2nn3nnnc3c3ccccc23)cc1 , please. -71.8

Now consider Cc1ccc(NC(=O)Cn2cnc3cc([N+](=O)[O-])ccc3c2=O)c(Cl)c1 . 16.4

Would you mind doing O=C(O)c1ccc(CNC(=O)c2ccc(S(=O)(=O)N3CCCCC3)cc2)cc1 as well? -1.88

Then what about the compound O=C(CSc1ccc2nnc(-c3cccnc3)n2n1)Nc1ccccc1 ? -17.8

Item: CC(=O)Nc1ccc(NC(=O)CSc2ccc3nnc(-c4cccnc4)n3n2)cc1 2.95

Moving on to O=C(Nc1nc(-c2ccco2)c(-c2ccco2)s1)c1cnccn1 3.8

Now try CC(=O)NC1=C(Nc2ccc(N(C)C)cc2)C(=O)c2ccccc2C1=O . -9.79

---

biological target: human ether-à-go-go-related gene (hERG) potassium channel (human, UniProt Q12809); assay: primary screen, population patch clamp on CHO cells stably expressing hERG; higher = less effect of the substance;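 note: peak tail current of the secondary pulse compared with the same well before compound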
Out of some 310,000 compounds screened, about 14,000 (4.5%) showed an effect of 50% or more. The effect is printed as a negative number. The sample holds strong results, similar compounds and a random draw of the others, so the mix is not that of the screen.
Examples of molecules with documented hERG current change (%, negative = inhibition) at 10uM follow.
Respond with the bare value in %.

>>> reported("COc1cccc(Cn2nc(C(=O)O)c3ccccc3c2=O)c1")
9.63

Give recorded hERG current change (%, negative = inhibition) at 10uM with human ether-à-go-go-related gene (hERG) potassium channel (human, UniProt Q12809) for the following molecule: Cc1nc2ccccc2c2oc(C(=O)N3CCN(c4ccc([N+](=O)[O-])cc4)CC3)cc12 -9.45

Same again, this time with Cc1occc1C(=O)N1CCN(c2ccc([N+](=O)[O-])cc2)CC1 -77.7

Request: Cc1c(C(=O)N2CCOCC2)oc2ccccc12 5.05

What about Cc1occc1C(=O)N1CCN(c2ccc(Cl)cc2)CC1 ? -4.41
